Assay: Measurement of logP values by HPLC on reversed phase columns (EEC directive 79/831 Annex V.A8)
Assay type: physicochemical
Conditions: pH 2.7, 0.1% formic acid in water / acetonitrile gradient, calibration with alkan-2-ones
Give Log P for every item shown.
Respond using a number only.

The recorded Log P for entry CC(C)CCOCC(=O)Nc1cccc(CON=C(c2ccccc2)c2nnnn2C)n1 [Example 43] equals 4.09

The recorded Log P for entry CC(OCC1CCCO1)C(=O)Nc1nc(CON=C(c2ccccc2)c2nnnn2C)cs1 (stereo not shown) [Example 60] equals 3.15

The recorded Log P for entry Cc1nnnn1C(=NOCc1csc(NC(=O)C(C)OCC2CC2)n1)c1ccccc1 (stereo not shown) [Example 34] equals 3.35

The recorded Log P for entry CC(OCC1CC1)C(=O)Nc1ccc(Br)c(CON=C(c2ccccc2)c2nnnn2C)n1 (stereo not shown) [Example 3] equals 4.23

The recorded Log P for entry Cc1nnnn1C(=NOCc1csc(NC(=O)C(C)OCC2CCCC2)n1)c1ccccc1 (stereo not shown) [Example 39] equals 4.31

The recorded Log P for entry Cc1nnnn1C(=NOCc1csc(NC(=O)COCCC2CCCC2)n1)c1ccccc1 [Example 41] equals 4.34

The recorded Log P for entry Cc1nnnn1C(=NOCc1cccc(NC(=O)C(C)OCc2ccccc2)n1)c1ccccc1 (stereo not shown) [Example 51] equals 4.11

The recorded Log P for entry Cn1nnnc1C(=NOCc1csc(NC(=O)CCSCc2ccccc2)n1)c1ccccc1 [Example 108] equals 3.69

The recorded Log P for entry Cn1nnnc1C(=NOCc1cccc(NC(=O)COCC2CCCCC2)n1)c1ccccc1 [Example 6] equals 4.63

The recorded Log P for entry Cc1nnnn1C(=NOCc1csc(NC(=O)CSCCC(C)C)n1)c1ccccc1 [Example 81] equals 3.99

The recorded Log P for entry Cc1nnnn1C(=NOCc1cccc(NC(=O)CCSCc2ccc(F)cc2)n1)c1ccccc1 [Example 111] equals 3.92

The recorded Log P for entry Cn1nnnc1C(=NOCc1cccc(NC(=O)COCCC2CCCCC2)n1)c1ccccc1 [Example 10] equals 4.98

The recorded Log P for entry Cn1nnnc1C(=NOCc1cccc(NC(=O)CSCc2ccccc2)n1)c1ccccc1 [Example 64] equals 3.78

The recorded Log P for entry Cn1nnnc1C(=NOCc1csc(NC(=O)CSCc2cccs2)n1)c1ccccc1 [Example 69] equals 3.46

The recorded Log P for entry Cc1nnnn1C(=NOCc1csc(NC(=O)COCC2CC2)n1)c1ccccc1 [Example 33] equals 3.11

The recorded Log P for entry CC(OCC1CCC1)C(=O)Nc1nc(CON=C(c2ccccc2)c2nnnn2C)cs1 (stereo not shown) [Example 22] equals 3.83

The recorded Log P for entry Cn1nnnc1C(=NOCc1cccc(NC(=O)COCc2ccccc2)n1)c1ccccc1 [Example 48] equals 3.63

The recorded Log P for entry CC(C)CCOCC(=O)Nc1nc(CON=C(c2ccccc2)c2nnnn2C)cs1 [Example 45] equals 3.8

The recorded Log P for entry Cc1nnnn1C(=NOCc1cccc(NC(=O)COCC2CC2)n1)c1ccccc1 [Example 23] equals 3.33

The recorded Log P for entry Cn1nnnc1C(=NOCc1cccc(NC(=O)OCC(C)(C)OCc2ccccc2)n1)c1ccccc1 [Example 68] equals 4.34

The recorded Log P for entry Cn1nnnc1C(=NOCc1csc(NC(=O)C(C)(C)CSC2CCCCC2)n1)c1ccccc1 [Example 102] equals 4.77

The recorded Log P for entry C=CCSCC(=O)Nc1nc(CON=C(c2ccccc2)c2nnnn2C)cs1 [Example 72] equals 3.11

The recorded Log P for entry CC(OCC1CC1)C(=O)Nc1nc(CON=C(c2ccccc2)c2nnnn2C)cs1 (stereo not shown) [Example 14] equals 3.29

The recorded Log P for entry CC(SCc1ccccc1)C(=O)Nc1nc(CON=C(c2ccccc2)c2nnnn2C)cs1 (stereo not shown) [Example 71] equals 3.8

The recorded Log P for entry Cc1nnnn1C(=NOCc1cccc(NC(=O)COCC2CCC2)n1)c1ccccc1 [Example 25] equals 3.92

The recorded Log P for entry Cn1nnnc1C(=NOCc1csc(NC(=O)CCOCc2ccccc2)n1)c1ccccc1 [Example 106] equals 3.33

The recorded Log P for entry Cc1nnnn1C(=NOCc1csc(NC(=O)C(C)OCC2CCCCO2)n1)c1ccccc1 (stereo not shown) [Example 62] equals 3.69

The recorded Log P for entry Cn1nnnc1C(=NOCc1cccc(NC(=O)C2Cc3ccccc32)n1)c1ccccc1 (stereo not shown) [Example 91] equals 3.58

The recorded Log P for entry Cc1nnnn1C(=NOCc1csc(NC(=O)CCOCc2ccccc2)n1)c1ccccc1 [Example 114] equals 3.37

The recorded Log P for entry CC(OCC1CC1)C(=O)Nc1ccc(F)c(CON=C(c2ccccc2)c2nnnn2C)n1 (stereo not shown) [Example 9] equals 3.71

The recorded Log P for entry Cn1nnnc1C(=NOCc1cccc(NC(=O)C2CC2c2ncc(C(F)(F)F)cc2Cl)n1)c1ccccc1 (stereo not shown) [Example 92] equals 4.54

The recorded Log P for entry Cc1nnnn1C(=NOCc1csc(NC(=O)CSCC2CC2)n1)c1ccccc1 [Example 87] equals 3.31

The recorded Log P for entry CC(OCC1CCCC1)C(=O)Nc1nc(CON=C(c2ccccc2)c2nnnn2C)cs1 (stereo not shown) [Example 19] equals 4.25

The recorded Log P for entry Cn1nnnc1C(=NOCc1csc(NC(=O)CCSCc2ccc(F)cc2)n1)c1ccccc1 [Example 107] equals 3.73

Source listed as patent US20140051575A1.
